Recorded values, source PubChem BioAssay (NCI).

test: NCI Yeast Anticancer Drug Screen. Data for the rad50 strain (AID 155);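 note: 0% = growth of vehicle-only cultures of the same strain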; conditions: S. cerevisiae rad50 strain growth inhibition, stronger effect = higher value; at 50.0 µM unless noted
About 79,000 compounds went through this panel and 15% of them were active in at least one assay; those are over-represented in the sample as a whole. Where a SMILES comes first, the peptide text is derived from it. The star is where a group is joined. Boc = CC(C)(C)OC(=O)*; OBn = c1ccc(CO*)cc1
For each entry below, report its growth inhibition value.
One number for each entry, in %.

[
  {
    "molecule": "O=C1C2C3ON(c4ccccc43)C2C(=O)N1c1ccccc1 (stereo not drawn)",
    "measured attribute": "growth inhibition",
    "measured value": -0.65
  },
  {
    "molecule": "NNC(=O)CC(=O)NN",
    "measured attribute": "growth inhibition",
    "measured value": 6.9
  },
  {
    "molecule": "CC(=O)OC/C(=C/C#N)C1CCC2C3CC=C4CC(OC(C)=O)CCC4(C)C3CCC12C (stereo not drawn)",
    "measured attribute": "growth inhibition",
    "measured value": 15.6
  },
  {
    "molecule": "N#CC1CSCC1=O (stereo not drawn)",
    "measured attribute": "growth inhibition",
    "measured value": -6.5
  }
]

// for each molecule in input: emit growth inhibition
1. O=C1NCC2(CCNCC2)N1
2. Cc1cc(=O)c2c(o1)C(=O)c1occc1C2=O
3. CCCCN(C#N)CCCC
4. COc1cc(OC)c(NC(=O)C2=C(C)NC(C)=C(C(=O)Nc3cc(Cl)c(OC)cc3OC)C2c2cccc([N+](=O)[O-])c2)cc1Cl
5. CCOC(=O)c1c(C(=O)OCC)c2cccn2c2c1cnn2-c1ccccc1
6. O=C(CC1CCCCC1)OCCOCCO
7. CC(C)CC(NC(=O)C(Cc1ccccc1)NC(=O)C(Cc1ccccc1)NC(=O)OC(C)(C)C)C(=O)OCc1ccccc1 (stereo not drawn) (Boc-Phe-Phe-Leu-OBn; configuration not given here)
8. CC(C)OC(=O)Nc1cccc(Cl)c1F

1. -10.3
2. -9.5
3. 3
4. 9.25
5. -0.85
6. -7.9
7. -3.15
8. 15.9

// for each molecule in input: emit growth inhibition
1. CCN(CC)c1ccc2cc(-c3csc(-c4ccc(N(C)C)cc4)n3)c(=O)oc2c1
2. Cc1nnsc1C(=O)NCc1c(F)cccc1Cl
3. CC(=O)Oc1cccc2c1C(=O)c1c(OC(C)=O)cc(C)cc1C2=O

1: 26.5; 2: 6.65; 3: 10.8

// for each molecule in input: emit growth inhibition
1. NCCCOB(OCCCN)OCCCN
2. COC(=O)C(Cc1nc2ccc(Cl)cc2[nH]c1=O)/C(=N\N)C(=O)Nc1cc(C)c(Cl)cc1S(=O)(=O)O (stereo not drawn)
3. OCC1OCOC(CO)(CO)C1O (stereo not drawn)
4. COc1ccc(NC(=O)CC(=O)n2nc(-c3ccccc3)c(N=Nc3ccccc3C(=O)O)c2-c2ccccc2)cc1
5. CCCCCC(=O)CC(=O)C(CC)CC
6. O=C(O)/C(=C/c1cccc(Cl)c1)c1ccc(Cl)cc1
7. CC(C)(C)C(=O)Oc1ccc([N+](=O)[O-])cc1
8. O=[N+]([O-])c1cc(COc2ccc(Cl)c(Cl)c2)ccc1Cl

1: 8.3; 2: 24.9; 3: 1.15; 4: -28.8; 5: 16.4; 6: 0.85; 7: 2.15; 8: 1.8

---

assay: NCI Yeast Anticancer Drug Screen. Data for the mlh1 rad18 strain (AID 175); conditions: S. cerevisiae mlh1 rad18 strain growth inhibition, stronger effect = higher value; at 50.0 µM unless noted
About 79,000 compounds went through this panel and 15% of them were active in at least one assay; those are over-represented in the sample as a whole.
For each entry below, report its growth inhibition value.
Numbers only, in %.

Would you please look over these solved cases?
[
  {
    "molecule": "O=C(O)CCc1[nH]c(I)nc1I",
    "measured value": 29.5
  },
  {
    "molecule": "CCN(CC)CCOC(=O)c1ccc(NC(=O)OCCOCCOC(=O)Nc2ccc(C(=O)OCCN(CC)CC)cc2)cc1",
    "measured value": 14.7
  },
  {
    "molecule": "Brc1cccc(C=NC23CC4CC(CC(C4)C2)C3)c1",
    "measured value": -4.6
  }
]

// for each molecule in input: emit growth inhibition
1. CC(Oc1ccc(OCC2CCCCC2)cc1)C(=O)N(CCO)CCO (configuration not stated)
2. CN1C(=O)/C(=C2\SC(=O)N(CN3CCOCC3)C2=O)c2ccccc21
3. CC(=O)NC1=NC(=O)/C(=C/c2ccc3c(c2)OCO3)N1C
4. OC(CCN1CC2CCC(CC2)C1)(Cc1ccccc1)c1cccs1 (configuration not stated)
5. COc1ccc(OC)c2[nH]c(=O)c(C)nc12
6. CC(=O)[CH-]C(=O)c1ccccc1.CC(=O)[CH-]C(=O)c1ccccc1.CC[C@H](/C=C/C(C)[C@H]1CCC2[C@@H]3CC=C4C[C@@H]([O-])CC[C@]4(C)C3CC[C@@]21C)C(C)C.CC[C@H](/C=C/C(C)[C@H]1CCC2[C@@H]3CC=C4C[C@@H]([O-])CC[C@]4(C)C3CC[C@@]21C)C(C)C.Cl.[Ti+4] (some centres not stated)
7. NNC(=O)CCC(=O)O
8. COC(=O)C(Cc1nc2ccc(Cl)cc2[nH]c1=O)/C(=N\N)C(=O)Nc1cc(C)c(Cl)cc1S(=O)(=O)O (configuration not stated)

[6.65, 2.35, 10.9, 32.5, -4.3, 9.55, -15.6, 5.95]

---

For each entry below, report its growth inhibition value.
experiment: NCI Yeast Anticancer Drug Screen. Data for the bub3 strain (AID 167); conditions: S. cerevisiae bub3 mutant strain, stronger effect = higher value; at 50.0 µM unless noted
The panel holds about 79,000 compounds, 15% with a hit somewhere; the sample as a whole holds those more often.
Give bare numbers, in %.

Would you please look over these solved cases?
[
  {
    "compound": "ClCCOC1CCCCO1 (stereo unspecified)",
    "uom": "%",
    "growth inhibition": -5.4
  },
  {
    "compound": "CN(C)CCNC(=O)Nc1cccc2ccccc12",
    "uom": "%",
    "growth inhibition": -6.5
  }
]

// for each compound in input: emit growth inhibition
1. COc1cc2c(cc1OC)[C@H](c1cc(OC)c3c(c1)OCO3)[C@H]1C(=O)OCC1C2 (stereo partly specified)
2. CC(=C=CC(c1ccccc1)(c1ccccc1)c1ccccc1)CC(c1ccccc1)(c1ccccc1)c1ccccc1
3. CCOC(=O)c1c(-c2ccc([N+](=O)[O-])cc2)c(C=O)n(-c2ccccc2)c1C

30.6
98
36.9

// for each compound in input: emit growth inhibition
1. CCOC(=O)C(NC(C)=O)(Nc1ccc(S(N)(=O)=O)cc1)C(F)(F)F (stereo unspecified)
2. Cc1nc2cnc(=Nc3ccccc3)nc-2n(-c2ccccc2)c1C

1: 7.7; 2: 5.15

// for each compound in input: emit growth inhibition
1. Cc1ccc(S(=O)(=O)CCC#N)cc1
2. Cc1ccc(S(=O)(=O)CCN2CCN(C)CC2)cc1
3. NC1N=Nc2ccccc21 (stereo unspecified)
4. CCC(Cl)COP(=O)(OCC(Cl)CC)O/C(C)=C(\C)OP(=O)(OCC(Cl)CC)OCC(Cl)CC (stereo unspecified)

1. -8.2
2. -2.65
3. -1.6
4. 0.4

---

assay: NCI Yeast Anticancer Drug Screen. Data for the bub3 strain (AID 167); details: S. cerevisiae bub3 mutant strain, stronger effect = higher value; at 50.0 µM unless noted
About 79,000 compounds went through this panel and 15% of them were active in at least one assay; those are over-represented in the sample as a whole. Active and inactive are the calls of the source. Cut-off read from the data, not from the text of the source: active = growth inhibition above about 70%; inactive = the rest.
For each entry below, report its growth inhibition value.

Would you please look over these solved cases?
[
  {
    "compound": "CN(Cc1ccccc1)C(=O)Nc1ccc(Cl)c(Cl)c1",
    "growth inhibition": "97.7% (active)"
  },
  {
    "compound": "SCCNCc1ccccc1",
    "growth inhibition": "6.9% (inactive)"
  }
]

// for each compound in input: emit growth inhibition
1. CCCCSc1ncnc2nc[nH]c12
2. CCn1nc(C)c2c1C(=O)NC(C)C(=O)N2 (stereo not drawn)
3. CCCOC(=O)c1ccc(O)cc1.[Cu+2]
4. CC(Cl)S(=O)(=O)c1ccccc1 (stereo not drawn)

1: -7.45% (inactive); 2: -22.9% (inactive); 3: -3.05% (inactive); 4: 8.35% (inactive)

---

Assay: NCI Yeast Anticancer Drug Screen. Data for the rad50 strain (AID 155);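 note: 0% = growth of vehicle-only cultures of the same strain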
Details: S. cerevisiae rad50 strain growth inhibition, stronger effect = higher value; at 50.0 µM unless noted
Procedure: Growth inhibition of yeast strains with defined genetic alterations is measured as a screen for potential anti-cancer activity. Selected strains with alterations in DNA damage repair or cell cycle control were exposed to compounds and growth inhibition was measured relative to vehicle treated controls. The strain used in this assay is rad50
This is part of a sample that, as a whole, favours compounds with a hit. Of some 79,000 tested, about 15% had one in any assay.
measured attribute: growth inhibition (%)
Answers are plain numbers, in %.

Would you please look over these solved cases?
[
  {
    "compound": "c1ccc(Nc2ccccc2)cc1 (tested in a mixture with another compound)",
    "growth inhibition (%)": 3.1
  },
  {
    "compound": "Cn1c(NN)nc2ccccc2c1=O",
    "growth inhibition (%)": -33.7
  },
  {
    "compound": "CNc1ccc(C=C2C=CC=C2)cc1",
    "growth inhibition (%)": 41.2
  },
  {
    "compound": "O=C1NC(=O)C(Cc2ccccc2)(c2cccnc2)N1 (stereo not given)",
    "growth inhibition (%)": -28.6
  },
  {
    "compound": "Nc1ccccc1S(=O)(=O)Nc1ccccc1",
    "growth inhibition (%)": 30.9
  },
  {
    "compound": "O=C(O)c1cscc1Cc1cccs1",
    "growth inhibition (%)": 0.05
  },
  {
    "compound": "O=C(O)CCCC1CCC(=O)CC1",
    "growth inhibition (%)": -0.4
  },
  {
    "compound": "CCCCCCCCCCCC(O)C(C)(C)C (stereo not given)",
    "growth inhibition (%)": 23.7
  },
  {
    "compound": "Cc1ccc2[nH]c(=O)[nH]c(=O)c2c1",
    "growth inhibition (%)": -5.85
  },
  {
    "compound": "O=[N+]([O-])c1ccc(Sc2ncnc3c2ncn3C2OC(CO)C(O)C2O)c2nonc12 (stereo not given)",
    "growth inhibition (%)": 3.05
  }
]

// for each compound in input: emit growth inhibition
1. C/C(=N\NC(=S)N1CCCCCC1)c1nccnc1C
2. COc1cc(O)c2c(=O)cc(-c3ccc(O)cc3O)oc2c1CC=C(C)C
3. N#Cc1c(-c2ccccc2Cl)c(-c2ccccc2Cl)nn(CCO)c1=O
4. O=C(Cc1nc2ccccc2o1)C(=O)Nc1cccc(Cl)c1

85.7
43.5
16.9
-4.25

// for each compound in input: emit growth inhibition
1. CN1N=C(c2ccncc2)OC1c1cccc(F)c1 (stereo not given)
2. COc1ccc2nc3ccccc3c(NCCC[N+](C)(C)[O-])c2c1[N+](=O)[O-]

1. -58
2. -6.4

// for each compound in input: emit growth inhibition
1. Cc1ccc(/C=C2\CCCC\C2=N\O)cc1
2. Oc1cccnc1Cl
3. COC(=O)c1ccc2c(c1)CC1(C2)Cc2cc3c(cc2C1)CCC3
4. CC1CC(C)OC(c2ccccc2Cl)O1 (stereo not given)

1: 5.15; 2: 12.9; 3: -19.4; 4: 24.6

// for each compound in input: emit growth inhibition
1. CC(C)CC1N=C(NN=C(CCl)CCl)OP1(=O)NCCCCCCNP1(=O)OC(NN=C(CCl)CCl)=NC1CC(C)C (stereo not given)
2. CN(C)CCNC(=O)Nc1cccc2ccccc12
3. CCCOC(=O)C1C(=O)CC(c2ccccc2)C1c1ccccc1 (stereo not given)
4. Cc1ccc(NC(=O)C(=O)CC(=O)c2sc(Nc3c(C)cccc3C)nc2C)cc1C
5. Cc1cc(=O)[nH]c(NNC(C#N)c2ccc(O)cc2)n1 (stereo not given)
6. Cc1no[n+]([O-])c1/C=N/NS(=O)(=O)c1ccccc1
7. O=C(NC12CC3CC(CC(C3)C1)C2)C(=O)c1c[nH]c2ccc([N+](=O)[O-])cc12
8. O=C(NO)c1ccccc1

1. 13.4
2. 16
3. 1.95
4. 13.4
5. -26
6. 2.25
7. -17.4
8. 17.1

// for each compound in input: emit growth inhibition
1. COC(=O)CCC1(C)C2CCC1(C)/C(=N/O)C2 (stereo not given)
2. CC(C)C1CO[C@]2(C)CCC(=O)N12 (stereo not given in full)
3. Cc1ccc(NP(=O)(Nc2ccc(C)cc2)c2ccc([N+](=O)[O-])cc2)cc1
4. Cc1nc2ccncc2[nH]1
5. CCCCCCCCCCCCCCCCCC(O)CCCCCCCCCCCCCCCCC
6. CCC1CC(=O)c2ccccc2O1 (stereo not given)

1: -10.2; 2: 4.6; 3: 93.2; 4: -7.7; 5: -16.9; 6: 0.65

// for each compound in input: emit growth inhibition
1. CC1=C(C(=O)OC(C)(C)C)C(c2ccc([N+](=O)[O-])cc2)C(C(=O)OC(C)(C)C)=C(C)N1
2. O=C(COc1ccc(Cl)cc1)N1CCN(C(=O)COc2ccc(Cl)cc2)c2ccccc21

0.2
11.7

// for each compound in input: emit growth inhibition
1. CC1(C)COC1(c1ccccc1)c1cccnc1 (stereo not given)
2. COC(=O)CCCCC(=O)OC

-45.1
35.9

// for each compound in input: emit growth inhibition
1. CO/C(=N\N=C\c1ccc(C(F)(F)F)cc1)c1ccncc1
2. N#C/C(=C\c1ccco1)C1CCC([N+](=O)[O-])CC1 (stereo not given)
3. Cc1cc2c(cc1Cl)SC(NNC1=NCCN1)=NS2(=O)=O

54.5
-5.05
-23.1
